# ASSAY TARGET: T1, PlGF-2 (UniProt P49763-3 19-170)
# T1 sequence (looked up): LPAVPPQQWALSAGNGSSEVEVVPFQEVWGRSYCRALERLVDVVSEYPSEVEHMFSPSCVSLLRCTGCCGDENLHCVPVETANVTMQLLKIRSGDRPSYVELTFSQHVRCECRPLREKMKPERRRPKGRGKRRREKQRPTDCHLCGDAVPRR
# METHOD DESCRIPTION: SPR, Fg β15-66 on the chip, cytokine injected (methods as Example 5), Langmuir fit
PROPERTY MEASURED: Kd (nM)
Answer format: numeric, nM implied, no suffix.

Can you share its Kd? I mean this binder: Fg β15-66 (other, Made as a GST fusion; GST was cleaved off; also called TG-Fg β15-66; fibrinogen β15-66 domain) GSNQEQVSPLGHRPLDKKREEAPSLRPAPPPISGGGYRARPAKAAATQKKVERKAPDAGGCGHHHHHH
1.9
